These measurements were taken from patent US8063069B2.

Experiment: pharmacokinetics of prucalopride in plasma after single oral administration to beagle dogs
Assay type: in vivo
Conditions: male, beagle; Dog 1; oral administration of prucalopride 2.5 mg/kg; prucalopride measured in plasma; read-out: AUC0-∞ area under the plasma concentration-time extrapolated to infinity, prucalopride
property_measured: AUC(0-inf) (ng·h/mL)
State the answer as a number, implicitly in ng·h/mL.

Input: AUC(0-inf) lookup needed for COCCCN1CCC(NC(=O)c2cc(Cl)c(N)c3c2OCC3)CC1 [prucalopride] , thanks.
Output: 4230

---

Assay: pharmacokinetics of prucalopride in plasma after single oral administration to beagle dogs
Format: in vivo
Conditions: male, beagle, dog, plasma, po, 2.5 mg/kg, Dog 2; oral administration of prucalopride 2.5 mg/kg; prucalopride measured in plasma; read-out: Cmax peak plasma concentration of prucalopride
Description: Two male beagle dogs were dosed orally with 1 ml of a test formulation comprising 2.5 mg/kg of 4-amino-5-chloro-2,3-dihydro-N-[1-(3-methoxypropyl)-4-piperidinyl]-7-benzofuran-carboxamide (“prucalopride”). After a wash-out period of four weeks, the same two dogs were dosed orally with 1 ml of a test formulation comprising 2.61 mg/kg of compound (1). […] Concentrations of prucalopride in the plasma samples were determined by LC/MS/MS. The quantification limit for prucalopride was 5.0 ng/ml. […]
property_measured: Cmax (ng/mL)
State the answer as a number, implicitly in ng/mL.

Input: Cmax lookup needed for COCCCN1CCC(NC(=O)c2cc(Cl)c(N)c3c2OCC3)CC1 [prucalopride] , thanks.
Output: 660

---

Experiment: pharmacokinetics of prucalopride in plasma after single oral administration to beagle dogs
Assay type: in vivo
Details: male, beagle, dog, plasma, po, 2.5 mg/kg, Dog 1; oral administration of prucalopride 2.5 mg/kg; prucalopride measured in plasma; read-out: Cmax peak plasma concentration of prucalopride
property_measured: Cmax (ng/mL)
State the answer as a number, implicitly in ng/mL.

Input: Cmax lookup needed for COCCCN1CCC(NC(=O)c2cc(Cl)c(N)c3c2OCC3)CC1 [prucalopride] , thanks.
Output: 556
